All figures here come from paper PMC9482650.

- Target System: T1, APBA1_1, Q02410
- T1 sequence (Q02410 651-752, limits assumed, looked up): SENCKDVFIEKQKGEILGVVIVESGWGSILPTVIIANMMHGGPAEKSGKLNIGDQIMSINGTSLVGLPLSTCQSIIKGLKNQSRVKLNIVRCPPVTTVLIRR
- Measurement Protocol: holdup assay
- Design: key: below the threshold = too weak to quantify, mostly under pKd 3.1 to 4
- Condition Context: plain residues with an end cap or a label only (N-terminal biotin on a linker: ahx)
Measured Parameter: pKd

binder="SDSSGQEYSL [KCTD3, Q9Y597]" reported_measurement="below the threshold"
binder="LSDPSVSTVV [GRIN1, Q05586;Q05586-2]" reported_measurement="below the threshold"
binder="RRRKRKRTYL [HPV49-L2, P36762]" reported_measurement=3.71
binder="HNAFLSVTTV [PDZRN4, Q6ZMN7]" reported_measurement=3.49
binder="ESLLLGPSNF [SHROOM4, Q9ULL8]" reported_measurement="below the threshold"

Enquiry: pKd for RAVEEEESRF [PSCDBP, O60759] ?
Return: below the threshold

Enquiry: Item under review: TVICWPGSLV [LNX2, Q8N448] . Reported pKd?
Return: below the threshold

Enquiry: Using the record for GYDWGPATDL [TJP3, O95049] , report its pKd.
Return: below the threshold

Enquiry: Could you share which pKd value was measured for PSASCAVTAA [PDLIM4, P50479;P50479-2] ?
Return: below the threshold

Enquiry: Returns the measured pKd for the input binder. Input: NRKREIFSNF [NHERF2, Q15599]
Return: below the threshold
